tested-on: Avi-KRAS WT (1-169) GppNHp/RAF1 RBD-3xFLAG (52-151) (Homo sapiens, UniProt P01116)
Construct: Avi-KRAS WT (1-169)
Sequence (P01116 1-169 isoform P01116-2): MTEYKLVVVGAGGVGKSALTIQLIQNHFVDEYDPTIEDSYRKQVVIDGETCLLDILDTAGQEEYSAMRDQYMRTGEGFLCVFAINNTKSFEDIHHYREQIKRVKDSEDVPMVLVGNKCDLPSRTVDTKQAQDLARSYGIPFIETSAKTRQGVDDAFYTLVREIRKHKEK
assay-notes: Raf1-KRAS WT-GppNHP disruption HTRF assay (Biological Example 1)
Assay type: binding
protocol-conditions: KRAS WT, GppNHp-loaded; Table 11
pIC50: −log10 of the molar value.
pIC50 reference

CN(C)C(=O)c1cc2n(n1)CCCN(c1nc(OC[C@@]34CCCN3C[C@H](F)C4)nc3c(F)c(-c4ccc(F)c5sc(N)c(C#N)c45)c(C(F)(F)F)cc13)C2 ... 6.00 to 7.00
CN(c1nc(OC[C@@]23CCCN2C[C@H](F)C3)nc2c(F)c(-c3ccc(F)c4sc(N)c(C#N)c34)c(C(F)(F)F)cc12)[C@H]1CCOC1 ... 6.00 to 7.00
CN(c1nc(OC[C@@]23CCCN2C[C@H](F)C3)nc2c(F)c(-c3ccc(F)c4sc(N)c(C#N)c34)c(Cl)cc12)[C@H]1C[C@@H](O)C1 ... 6.00 to 7.00
CN(c1nc(OC[C@@]23CCCN2C[C@H](F)C3)nc2c(F)c(-c3ccc(F)c4sc(N)c(C#N)c34)c(C(F)(F)F)cc12)[C@H]1CCC[C@@H]1CO ... 5.00 to 6.00
CN(c1nc(OC[C@@]23CCCN2C[C@H](F)C3)nc2c(F)c(-c3ccc(F)c4sc(N)c(C#N)c34)c(C(F)(F)F)cc12)[C@@H]1C[C@H](O)[C@@H]1CO ... > 7.00
C[C@@H]1CN(c2nc(OC[C@@]34CCCN3C[C@H](F)C4)nc3c(F)c(-c4ccc(F)c5sc(N)c(C#N)c45)c(C(F)(F)F)cc23)CCO1 ... 6.00 to 7.00
C[C@H]1CCN1c1nc(OC[C@@]23CCCN2C[C@H](F)C3)nc2c(F)c(-c3ccc(F)c4sc(N)c(C#N)c34)c(C(F)(F)F)cc12 ... 6.00 to 7.00
N#Cc1c(N)sc2c(F)ccc(-c3c(C(F)(F)F)cc4c(N5CC6CCC(C5)O6)nc(OC[C@@]56CCCN5C[C@H](F)C6)nc4c3F)c12 ... 6.00 to 7.00
CN(c1nc(OC[C@@]23CCCN2C[C@H](F)C3)nc2c(F)c(-c3ccc(F)c4sc(N)c(C#N)c34)c(C(F)(F)F)cc12)C(CO)CO ... 6.00 to 7.00
N#Cc1c(N)sc2c(F)ccc(-c3c(C(F)(F)F)cc4c(N5CCCCC5)nc(OC[C@@]56CCCN5C[C@H](F)C6)nc4c3F)c12 ... 6.00 to 7.00

Now take the following compound into account.
Quick check: pIC50 of "CN(C[C@@H](O)CO)c1nc(OC[C@@]23CCCN2C[C@H](F)C3)nc2c(F)c(-c3ccc(F)c4sc(N)c(C#N)c34)c(C(F)(F)F)cc12" ?
6.00 to 7.00

The origin of these recorded values is patent US20260042764A1.
